- target-of-assay: human ChemR23 (CMKLR1), PathHunter β-Arrestin CHO cell line (human, UniProt Q99788 1-373)
- Sequence (Q99788 whole entry): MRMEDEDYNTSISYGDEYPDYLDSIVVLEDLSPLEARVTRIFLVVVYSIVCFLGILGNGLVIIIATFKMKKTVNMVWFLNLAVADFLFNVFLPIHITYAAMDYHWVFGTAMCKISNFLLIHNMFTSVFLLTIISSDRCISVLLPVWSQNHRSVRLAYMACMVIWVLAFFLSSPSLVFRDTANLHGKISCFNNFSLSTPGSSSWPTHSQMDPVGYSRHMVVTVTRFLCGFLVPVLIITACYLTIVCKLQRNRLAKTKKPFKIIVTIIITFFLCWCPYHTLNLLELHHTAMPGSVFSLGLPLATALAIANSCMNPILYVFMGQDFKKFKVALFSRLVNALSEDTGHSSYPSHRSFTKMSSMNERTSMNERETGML
- test-summary: cell-based or functional assay
Below, each of the binders is paired with its reported [EC50] (M), PathHunter β-Arrestin agonist value.
State the answer as a number, implicitly in M.

AGEDPHSFYFPGQFAF [human chemerin C16 peptide] :: 2.9e-08

Here is the next item to consider.
Asked: Would you kindly share the measured [EC50] (M), PathHunter β-Arrestin agonist for AGEDPHSFYFPGQFAFS [human chemerin C17 peptide] ?
Given back: 4.8e-07

Reference source: patent US20160136231A1
